Test system: Plasmodium berghei
Assay: Screen against P. berghei liver stage (PbLuc), transformed with Luciferase, at 2uM
Assay type: functional, HepG2
Details: tested at 2 uM
The campaign covered roughly 68,000 compounds. About 2,700 (4%) showed an effect of 50% or more. Only a selection was taken, and strong results are over-represented in it overall.
Recorded INHIBITION by entry
Quick note: give the figure in %, leave out the unit.

CN(Cc1cccc(OC(F)(F)F)c1)C(=O)c1cnsn1 ... 10.1
CCO[C@@H]1C[C@H]2CN(S(=O)(=O)c3cccs3)CCN2C1 ... -49.68
CCc1ccc(CN2CCN(c3cccc(OC)c3)C(=O)C2)nc1 ... -18.92
Cc1ccc(CN2CCC3(CC(C(=O)NC4CCC4)=NO3)C2)o1 (stereo not drawn) ... -27.21
CC[C@@H](CO)Nc1nccc(-c2c[nH]c3cc(C(=O)OC)ccc23)n1 ... 17.01
CC(=O)NC(Cc1c[nH]c2cc(F)ccc12)C(=O)Nc1nncs1 (stereo not drawn) ... 59.94
Cc1noc(-c2ccc(Oc3cccc(CN4CCCC4)c3F)nc2)n1 ... -9.95
Cc1ccc(S(=O)(=O)N2CCC(S(=O)(=O)c3nncn3C)CC2)cc1C ... -19.3
CC(C)[C@@H]1CN(C(=O)C2(c3ccccc3)CC2)C[C@H]1C(=O)O ... 69.67
CCS(=O)(=O)CCN(CC1CCCO1)C1CCCC1 (stereo not drawn) ... -19.27

Give reported INHIBITION value for Cn1cnnc1S(=O)(=O)C1CCN(S(=O)(=O)c2ccc(F)c(Cl)c2)CC1
60.09

Give reported INHIBITION value for Cn1c(N2CC[C@H](O)C2)nc2cc(C(N)=O)ccc21
26.7

Give reported INHIBITION value for CCC(CC)NC(=O)c1ccc2nnc(C3CCN(C(C)=O)C3)n2c1 (stereo not drawn)
30.75

Give reported INHIBITION value for CN1CCCC1CCNC(=O)c1ccccc1-n1cnc(CN)c1 (stereo not drawn)
22.95

Give reported INHIBITION value for COCC(=O)N1CCC(C(=O)Nc2ccc(C(C)=O)cc2)CC1
10.64

Give reported INHIBITION value for CC(C)(C)c1noc(CCCC(=O)N2CCNC(=O)C2)n1
-31.79

Give reported INHIBITION value for Cc1nnc(NC(=O)NCc2ccc(F)cc2)s1
-12.41

---

Test system: Plasmodium berghei
Test: Screen against P. berghei liver stage (PbLuc), transformed with Luciferase, at 2uM
Assay type: functional, HepG2
Settings: tested at 2 uM
Out of some 68,000 compounds screened, about 2,700 (4%) showed an effect of 50% or more. For the sample, strong results were picked, then their nearest neighbours and some compounds at random.
Would you mind labelling by INHIBITION? At or over 30% is 1.0, under is 0.0.

OC1(CNCCc2csc(-c3ccncc3)n2)CCCNC1 (stereo unspecified) ... 0.0
COCCN1C[C@@H](C(=O)O)[C@H](c2ccccc2C)C1 ... 1.0
Cc1ccccc1[C@@H]1CN(Cc2nc3ncccn3n2)C[C@H]1C(=O)O ... 0.0

Could you tell me if the measured INHIBITION of Oc1cc(-c2nccs2)nc(C2CCN(Cc3cccs3)CC2)n1 reaches 30% or more?
0.0

Could you tell me if the measured INHIBITION of O=S(=O)(Cc1c(F)cccc1Cl)NCCCN1CCCCCC1 reaches 30% or more?
1.0

---

System: Plasmodium berghei
Test: Screen against P. berghei liver stage (PbLuc), transformed with Luciferase, at 2uM
Type: functional, HepG2
Conditions: tested at 2 uM
Among all 68,000 compounds or so, about 2,700 (4%) showed an effect of 50% or more. This is one part of a sample in which strong results are shown more often than they occur.
Would you mind labelling by INHIBITION? At or over 30% is true, under is false.

Could you tell me if the measured INHIBITION of CN(C)C(=O)[C@@H]1C[C@@H]2CCN(Cc3nccs3)C[C@@H]2O1 reaches 30% or more?
false

Could you tell me if the measured INHIBITION of Cc1nc(CN2CC[C@@H]3O[C@@H](C(=O)N4CCOCC4)C[C@@H]32)cs1 reaches 30% or more?
true

Could you tell me if the measured INHIBITION of Cn1cc(CN2CC[C@H]3O[C@@H](C(=O)NC4CC4)CC[C@H]32)cn1 reaches 30% or more?
false

Could you tell me if the measured INHIBITION of CC(C)N1CCc2c(CN(C)Cc3ccco3)cncc2C1 reaches 30% or more?
false

Could you tell me if the measured INHIBITION of Cc1cncc(C2CCCN(C(=O)c3c[nH]c(=O)[nH]c3=O)C2)n1 (stereo unspecified) reaches 30% or more?
true

Could you tell me if the measured INHIBITION of Cc1ccc(CS(=O)(=O)Cc2nc(N)nc(N(C)C)n2)cc1 reaches 30% or more?
false

---

Recorded INHIBITION by entry
Test system: Plasmodium berghei
Experiment: Screen against P. berghei liver stage (PbLuc), transformed with Luciferase, at 2uM
Type: functional, HepG2
Details: tested at 2 uM
About 2,700 (4%) of roughly 68,000 compounds showed an effect of 50% or more. The list comes from a sample in which strong results are over-represented; it also holds close analogues and randomly drawn compounds.
Quick note: give the figure in %, leave out the unit.

Sample records with INHIBITION:
N#Cc1ccnc(N2CCC(c3nccn3Cc3cscn3)CC2)c1 ... 45.58
COc1ccccc1Oc1ncccc1CNC(=O)C1(C)CCCNC1 (stereo not given) ... 43.27
CN(CCc1ccccn1)C(=O)c1cccs1 ... 24.64
CCN1CCOC(CNCc2ccc(C)s2)C1 (stereo not given) ... -19.02
CCOc1ccc(CN2C(=O)CC3(CCCC3)C2=O)nc1 ... -32.8

Give reported INHIBITION value for Cc1cc(C)n2ncc(CN3CCC(Cn4cc(CO)nn4)CC3)c2n1
64.9

---

Recorded INHIBITION by entry
Test system: Plasmodium berghei
Assay: Screen against P. berghei liver stage (PbLuc), transformed with Luciferase, at 2uM
Format: functional, HepG2
Settings: tested at 2 uM
In all, about 68,000 compounds went through this assay and about 2,700 (4%) showed an effect of 50% or more. The entries come from a sample that favours strong results as a whole.
Quick note: give the figure in %, leave out the unit.

Write down the reported INHIBITION (system: Plasmodium berghei) of CC1COCCN1Cc1nc(Cc2ccccc2)no1 (configuration not stated)
-23.37

Write down the reported INHIBITION (system: Plasmodium berghei) of COCC(=O)N1CCC(Oc2cccc(C)c2)CC1
58.53

---

Recorded INHIBITION by entry
System: Plasmodium berghei
Assay: Screen against P. berghei liver stage (PbLuc), transformed with Luciferase, at 2uM
Type: functional, HepG2
Conditions: tested at 2 uM
Out of some 68,000 compounds screened, about 2,700 (4%) showed an effect of 50% or more. Shown is part of a subset that was picked to be rich in strong results.
Quick note: give the figure in %, leave out the unit.

Cc1cccc(N2CCC3(CCCN3Cc3cnn(C)c3C)CC2)n1 ... 11.33
O=C(CCO)N1C[C@H]2CN(c3ccccc3)C(=O)[C@H]2C1 ... 54.01
COCCN1CC[C@]2(CN(Cc3cccnc3)C[C@H]2C)C1=O ... 49.07
CNS(=O)(=O)c1cnccc1N1CCN(C(C)C)CC1 ... 15.75
CCCC(NC(=O)c1cncc(C)c1)c1nnn[nH]1 (centres undefined) ... -10.41
Cc1nc(N(C)Cc2cccc(O)c2)nc2cc(S(C)(=O)=O)ccc12 ... 33.4
CCC(CC)(CCO)CNC(=O)c1ccon1 ... 34.69
c1cnn(CC2CN(Cc3csc(C4CCCCC4)n3)CCO2)c1 (centres undefined) ... -43.79
Cc1ccc(CN2CC[C@H]3C[C@H](C(=O)N(C)C)O[C@H]3C2)cc1 ... 22.5
COc1ccc(-c2c(C)nn3c(=N)c(C#N)n[nH]c23)cc1OC ... 1.04

Give reported INHIBITION value for CCCN1CCC2(C1)c1ccccc1S(=O)(=O)N2Cc1ccccc1 (centres undefined)
9.87

Give reported INHIBITION value for O=S(=O)(NCC1(O)CCOCC1)c1c(F)cccc1F
43.15

Give reported INHIBITION value for Cc1ccc(CN2CCc3c(COCC4CC4)nn(C)c3C2)s1
22.12

Give reported INHIBITION value for CC(=O)N1CCCC1c1cc(N2CCN(CC3CC3)CC2)cc(C)n1 (centres undefined)
6.89

Give reported INHIBITION value for CN(C)c1nccc(-c2c[nH][nH]c2=O)n1
3.97

Give reported INHIBITION value for c1ncn(CC2CCCN(Cc3nc(C4CC4)no3)C2)n1 (centres undefined)
-8.84

Reference source: ChEMBL document CHEMBL4513216
